Target: Polyunsaturated fatty acid lipoxygenase ALOX12 (Homo sapiens)
Test: Confirmatory qHTS assay for inhibitors of human arachidonate 12S-lipoxygenase (ALOX12): Round 2
Conditions: purified human 12-LOX, xylenol orange absorbance; series mostly up to 125 µM
Hit rate of the full screen: of about 1,100 compounds, about 70 (6%) were called active. Not shown: some 22% with an inconclusive outcome. Calls follow the shape of the dose curve; as a rule, active = well fitted curve in the direction sought with a large enough effect; inconclusive = small, poorly fitted or top-dose-only effect, or another doubt; inactive = no such curve, though single readings can be large or run the other way. This is one part of a sample in which actives are shown more often than they occur.
API: response.call in active, inactive

*Q* Can you look up the reported call for `COc1ccccc1NC(=O)Nc1ccc2n(c1=O)C[C@H]1C[C@@H]2CN(C2CCOCC2)C1` for me?
*A* active

*Q* Can you look up the reported call for `CSc1ccc(-c2ccc(=O)n3c2[C@@H]2C[C@@H](CN(S(=O)(=O)c4cccs4)C2)C3)cc1` for me?
*A* active

*Q* Can you look up the reported call for CCN1C[C@]2(COC(=O)c3ccccc3N3C(=O)CC(C)C3=O)CC[C@H](OC)[C@@]34C5C[C@@H]6[C@@H](OC)C[C@@](O)(C5[C@H]6OC)[C@](O)([C@@H](OC)C23)[C@@H]14 (stereo partly specified) for me?
*A* inactive

*Q* Can you look up the reported call for `CCCS(=O)(=O)N1C[C@@H]2C[C@H](C1)c1c(-c3ccc(Cl)cc3)ccc(=O)n1C2` for me?
*A* inactive

*Q* Can you look up the reported call for `CSc1ccc(-c2ccc(=O)n3c2[C@@H]2C[C@@H](CN(S(C)(=O)=O)C2)C3)cc1` for me?
*A* inactive

*Q* Can you look up the reported call for `CCOc1ccc(CN(CCc2ccc3c(c2)OCO3)Cc2ccc(C)cc2)cc1` for me?
*A* inactive

*Q* Can you look up the reported call for `CSc1ccc(CN2CCN(C(=O)COc3ccc(C)cc3)CC2)cc1` for me?
*A* inactive

*Q* Can you look up the reported call for `Cc1o[nH]c(=O)c1C[C@H](N)C(=O)O` for me?
*A* inactive

*Q* Can you look up the reported call for `O=C(Nc1ccc2n(c1=O)C[C@H]1C[C@@H]2CN(Cc2ccc(F)cc2)C1)c1cccs1` for me?
*A* inactive

*Q* Can you look up the reported call for O=C(Cc1ccc(Cl)cc1)N1Cc2ccccc2CC2(CCCN2CC2CCNC2)C1 (stereo unspecified) for me?
*A* inactive

*Q* Can you look up the reported call for `N[C@@]1(C(=O)O)CC[C@H](C(=O)O)C1` for me?
*A* inactive

These entries and their values trace back to PubChem BioAssay AID1671189.
